READOUT_LABEL: melting point

Examples with answers:
COMPOUND	melting point
CCOC(=O)Cn1c(=O)c2cc(Cl)ccc2n(Cc2ccc(Cl)cc2)c1=O	137 to 138 °C
Nc1ccc(-c2cc3[nH]c4ccc(O)cc4c3c3c2C(=O)NC3=O)cc1	256 to 258 °C
Cc1cc(NC(=O)C(CS)Cc2ccccc2)c(C)c(C(=O)O)c1 (stereo unspecified)	180 to 182 °C
CC(=NNc1ccc([N+](=O)[O-])cc1)c1ccccc1	186 to 188 °C
CCCC=Cc1c(C(C)C)cc(C(C)C)c(CO)c1-c1ccc(F)cc1	85 to 95 °C

Task: Which melting point value belongs to `CC[C@H]1CC[C@H](c2ccc(CCc3ccc(OC(F)F)cc3)cc2)CC1` ?
Output: 51 °C

Task: Which melting point value belongs to `CCOCc1nc2c(N)nc3ccccc3c2n1CCCC(C)=NO` ?
Output: 220 to 223 °C

Task: Which melting point value belongs to `Cc1cc2cc(CN3CCC(C(=O)N(C)C)CC3)cnc2cc1NC(=O)c1ccc(-c2ccc(F)cc2)cc1` ?
Output: 229 °C

Task: Which melting point value belongs to `CC(=O)OCc1ccc(C#Cc2ccc3c(c2)C(C)(C)CCC3(C)C)cc1` ?
Output: 136 to 139 °C

Task: Which melting point value belongs to `Cc1c(Cc2cc(=O)n(C3CCCCC3)[nH]2)c2ccccc2n1C(=O)c1ccc(Cl)cc1` ?
Output: 98 °C

Task: Which melting point value belongs to `COc1cc(C(=O)NCc2ccc3c(c2)C(=C2CCN(C)CC2)c2ccccc2C=C3)cc(OC)c1OC` ?
Output: 200 to 202 °C

Task: Which melting point value belongs to CCCOC(=O)C(N)C=CCP(=O)(O)O (stereo unspecified) ?
Output: 161 to 162 °C

Task: Which melting point value belongs to `O=[N+]([O-])c1ccc(Cl)cc1Nc1ccccc1Cl` ?
Output: 97 °C

Task: Which melting point value belongs to `O=C1O[C@@H]2C[C@@]1(O)CC[C@H]2O` ?
Output: 212 to 214 °C

* * *

Property: melting point; scope: individual molecules

Examples with answers:
MOLECULE	melting point
NC(CO)C(c1ccccc1)c1ccccc1 (centres undefined)	107 to 108 °C
Cc1nnc2n1-c1sc(CCC(=O)N3CCCCC3)cc1C(c1ccccc1Cl)=NC2C (centres undefined)	157 to 160 °C
Cn1cc2c(ncn3nc(-c4ccco4)nc23)n1	155 to 156 °C
Cc1noc(Cc2ccccc2Nc2c(Cl)cccc2Cl)n1	93.5 to 94.5 °C
NS(=O)(=O)c1cc(NC(=O)c2cnn3c(C(F)(F)F)cc(-c4ccc(Cl)cc4)nc23)c(Cl)s1	329 °C

Switching to the query record.
Task: Which melting point value belongs to `CC(C)Cn1c(CNC(=O)OC(C)(C)C)c(-c2ccc(F)cc2)c2cc(/C=C/C(N)=O)ccc2c1=O` ?
Output: 161 to 163 °C

* * *

READOUT_LABEL: melting point

Examples with answers:
COMPOUND	melting point
O=c1c2c(Cc3ccccc3[N+](=O)[O-])n[nH]c2c2cccnc2n1-c1cccc(OC(F)(F)F)c1	274 to 276 °C
CCCCn1c(=O)c2nn(S(=O)(=O)CCCCl)cc2n(CCCC)c1=O	67 to 68 °C
COc1ccccc1N1CCN(Cc2ccccc2C(c2ccc(O)cc2)c2ccc(O)cc2)CC1	175 to 178 °C
COc1ccc(N2CCN(c3c(C)c(C)c4c(c3C)C(N3CCCCC3)C(C)(C)O4)CC2)cc1OC (stereo not drawn)	134 to 135 °C
CCCCCCCCCCC[C@H](O)C[C@@H]1OC(=O)[C@H]1CCCCCC	61 to 62 °C

Task: Which melting point value belongs to `O=c1oc(C=Cc2ccccc2)nc2ccccc12` ?
Output: 145 to 147 °C

Task: Which melting point value belongs to `CC(C)(C)OC(=O)Nc1ccc(CC(=O)N2CCC(c3[nH]nc4c3C(=O)c3c(NC(=O)NN5CCOCC5)cccc3-4)CC2)cc1` ?
Output: 177 to 178 °C

Task: Which melting point value belongs to `CCCc1ccnc2c(=O)[nH]c(-c3cc(S(=O)(=O)N4CCC(C(=O)O)CC4)ccc3OCC)nc12` ?
Output: 262 to 264 °C

* * *

Property: melting point; scope: individual compounds

COMPOUND	melting point
COC(=O)c1oc(C)nc1-c1ccc2c(c1)CCCC2	96 to 97 °C
CCCOc1cc(C(=O)O)cc([N+](=O)[O-])c1-c1ccccc1	142 to 144 °C
CCCCOc1ccc(CCCOC(=O)NS(=O)(=O)NCCOC(C)C)c(Oc2ncc(C(F)(F)F)cc2Cl)c1	91.4 to 91.6 °C
CC(=O)N1CCc2ccc(C(=O)c3ccccc3)cc2C1	110 to 113 °C
NCC1COc2cc(F)cc(-c3ccccc3C(F)(F)F)c2N1 (stereo unspecified)	99 °C
CC(C)CCNC(=O)c1ccc2c(c1)N(C(C)CN(C)C)c1ccccc1S2 (racemic)	105 °C

Task: Which melting point value belongs to Cc1c(-c2ccncc2)[nH]c2c1C(=O)CC(c1ccccc1)C2 (stereo unspecified) ?
Output: 256 to 257 °C

Task: Which melting point value belongs to CCOc1ccc(C2=NN(C3CCOCC3)C(=O)[C@H]3CC=CC[C@@H]23)cc1OCC (relative stereo) ?
Output: 127 to 129 °C

Task: Which melting point value belongs to CC(C)NCC(O)COc1ccc2nc3[nH]c(=O)[nH]c3cc2c1 (stereo unspecified) ?
Output: 262 to 264 °C

Task: Which melting point value belongs to `Cc1ccc(-c2cc(C)ccc2C=CC#Cc2ccc(C(=O)O)cc2)cc1` ?
Output: 71 to 73 °C

Task: Which melting point value belongs to CCCCCOC(=O)C1CC(Br)=NN1c1ncccc1Cl (stereo unspecified) ?
Output: 39 to 42 °C

* * *

Property: melting point; scope: individual compounds

Task: Which melting point value belongs to `COc1cc(OC)cc(-c2nc[nH]c2-c2ccc(OC)c(N)c2O)c1` ?
Output: 132 to 134 °C

Task: Which melting point value belongs to `Clc1nc(-c2nc3ccccc3[nH]2)[nH]c1Cl` ?
Output: 300 °C

Task: Which melting point value belongs to `CC(=O)CC(=S)Nc1ccccc1` ?
Output: 125 °C

Task: Which melting point value belongs to `O=C(O)C(=O)c1ccc(OCCCCOc2ccccc2)cc1` ?
Output: 103 to 105 °C

Task: Which melting point value belongs to Cc1ccccc1C1SC2(CCN(C)CC2)c2ccccc21 (stereo not drawn) ?
Output: 132 to 134 °C

* * *

Property: melting point; scope: individual compounds

Examples with answers:
COMPOUND	melting point
CCN(CC)c1ccc(-n2c(CC(=O)O)c(C(=O)O)c3cc(Oc4ccc(C(F)(F)F)cc4)ccc32)cc1	234 to 236 °C
Oc1ccc(C2(c3ccc(O)cc3)CCC(c3ccccc3)CC2)cc1	262 to 263 °C

Task: Which melting point value belongs to CC1CCCN(CC(C)N2c3ccccc3Sc3ccc(C(N)=S)cc32)C1 (mixture of isomers) ?
Output: 236 °C

Task: Which melting point value belongs to O=C(OCC(OC(=O)c1ccccc1)c1nc2c(C(F)(F)F)cccc2c(O)c1C(=O)Nc1nccs1)c1ccccc1 (stereo not given) ?
Output: 240 °C

Task: Which melting point value belongs to `COc1cc2ncnc(Nc3cccc4ccccc34)c2cc1OC` ?
Output: 271 to 273 °C

Task: Which melting point value belongs to CS(=O)(=O)OCCCCC1C(=O)Nc2ccccc21 (stereo not given) ?
Output: 84 to 85 °C

Task: Which melting point value belongs to CN1CCN(c2ccc3c(c2)NC(=O)C(C)(c2ccc(N)cc2)C3=O)CC1 (stereo not given) ?
Output: 265 to 267 °C

Task: Which melting point value belongs to `CCCc1nn(C)c2c(=O)[nH]c(-c3cc(S(C)(=O)=O)ccc3OCC)nc12` ?
Output: 235 to 236 °C

Task: Which melting point value belongs to `CNC(=O)C1=CC(CF)(CF)Oc2ccc(C#N)cc21` ?
Output: 206 to 207 °C

Task: Which melting point value belongs to `Cc1c2c(c(Br)c(C(C)C)c1OCc1ccccc1)OC(C)(C)C2` ?
Output: 156 °C

Task: Which melting point value belongs to `O=c1c(Cc2ccncc2)c(-c2ccccc2)[nH]c2ccccc12` ?
Output: 222 to 224 °C

Task: Which melting point value belongs to CCCCCCC(C(=O)O)n1ccc2cc(-c3ccccc3C(=O)O)ccc21 (stereo not given) ?
Output: 115 to 120 °C

* * *

READOUT_LABEL: melting point

Examples with answers:
COMPOUND	melting point
COC(=O)c1ccc2c(c1)C(=O)C(Cc1cccc(C(=O)O)c1)O2 (configuration not stated)	140 to 143 °C
CS(=O)(=O)c1ccc(-n2nc(C(F)(F)F)cc2-c2nc3cc(F)ccc3[nH]2)cc1	278 to 280 °C
O=S(c1c(C(F)(F)F)[nH]c2ccccc12)C(F)(F)F (configuration not stated)	183 to 185 °C
COC(=O)c1ncc(C(=O)O)cc1Cl	182 to 184 °C
CCOC(=O)c1ccccc1NCc1c(-c2ccccc2)nn(C)c1Cl	123 °C

Switching to the query record.
Task: Which melting point value belongs to `Cc1nc(-c2ccccc2)oc1C(N)=O` ?
Output: 187 to 190 °C

Hello, the source for this data is a melting point compilation (Tetko et al.; mined from patent text by program, amines drawn as free bases though some values may be those of a salt), in case you need it.
